Provenance of the data: PubChem BioAssay (NCI)

Measured TGI, listed per entry.
Tested on: SN12C renal
Procedure summary: NCI tumour cell line growth inhibition, 48 h

Below, each entry is followed by its recorded TGI result.
- Compound: "O=c1[nH]nc(Nc2ccccc2)c2nnn(C3CCCCC3)c12"
  Endpoint value: "> 100 µM"
- Compound: "Cc1cc2c(c(S(=O)(=O)c3ccccc3[N+](=O)[O-])c1)NCCC2"
  Endpoint value: "> 100 µM"
- Compound: "COC(=O)[C@]1(c2cc3ccccc3[nH]2)CC2CN(C(=O)OCc3ccccc3)C1CC2=O (some centres undefined)"
  Endpoint value: "80.6 µM"

INPUT: Using known records, supply TGI for NC(=O)CC(N)C(=O)NC(Cc1ccccc1)C(=O)NC(Cc1ccccc1)NC(=O)C(Cc1c[nH]c2ccccc12)C(=O)O (centres undefined)
OUTPUT: > 100 µM

INPUT: Kindly indicate its recorded TGI. Item: `O=C(CI)Nc1ccc(O)c2ccccc12`
OUTPUT: 3.3 µM

INPUT: Provide only the value of recorded TGI for Cc1ccc(S(=O)(=O)C2=c3nc4ccccc4cc3=C3C(=O)c4ccccc4C(=O)C32)cc1 (centres undefined)
OUTPUT: > 100 µM

INPUT: Please report TGI for the following compound: `CC(=O)O[C@H]1C(=O)[C@@]2(C)[C@H]([C@H](OC(=O)c3ccccc3)[C@]3(O)C[C@H](OC(=O)[C@H](O)[C@@H](NC(=O)c4ccccc4)c4cccc(N(C)C)c4)C(C)=C1C3(C)C)[C@]1(OC(C)=O)CO[C@@H]1C[C@@H]2O`
OUTPUT: > 75 µM

INPUT: Give me measured TGI, please, for this compound: `O=C(C/C(=N/O)C(F)(F)F)c1cccs1`
OUTPUT: > 100 µM

INPUT: Specify TGI for `CC1=NOC(=O)/C1=C/c1ccc([N+](=O)[O-])cc1` and stop.
OUTPUT: > 100 µM

* * *

Tested on: RXF 393 renal
Procedure summary: NCI tumour cell line growth inhibition, 48 h; in the data active means GI50 below about 0.43 µM; inactive means the rest
The reply should name one outcome from active, inactive

- Compound: "C[C@H]1COCCN1c1cc(C2(S(=O)(=O)C3CC3)CC2)nc(-c2ccc(NC(=S)NCCO)cc2)n1"
  Measurement target: "RXF 393 renal"
  Assigned label: "active"
- Compound: "CC(C)C(=O)c1c(C(F)(F)F)n([O-])c2cc(F)c(F)cc2[n+]1=O"
  Measurement target: "RXF 393 renal"
  Assigned label: "inactive"
- Compound: "Cn1c(-c2ccccc2)c(/C=C/C2=[N+](C)c3ccccc3C2(C)C)c2ccccc21"
  Measurement target: "RXF 393 renal"
  Assigned label: "inactive"
- Compound: "O=CN1N=C(c2cccc(Nc3ccnc4cc(Cl)ccc34)c2)CC1c1ccccc1 (stereo not given)"
  Measurement target: "RXF 393 renal"
  Assigned label: "active"

INPUT: // outcome(item) with item = `COc1ccc(/C=C2\SC(=Nc3ccccc3)NC2=O)cc1`
OUTPUT: inactive

* * *

Listed here are molecules together with their documented TGI.
System: MDA-N
Procedure summary: NCI tumour cell line growth inhibition, 48 h
*1 amine or outer side, *2 acyl side, *3 side chain or, on linkers, in order; H or OH if unused. Where a SMILES comes first, the peptide text is derived from it. Bridges are numbered along the chain shown (N, C = ends). Roman numbers before positions name the chains, in order. [ ]: non-standard residue; d: D form. Actinocin(9to1) = Cc1c2oc3c(C)ccc(C(=O)[*:1])c3nc-2c(C(=O)[*:2])c(N)c1=O; Hyp = O=C(O)[CH]1C[CH](O)CN1; NMeV = CN[CH](C(=O)O)C(C)C; Sar = CNCC(=O)O

- Molecule: "NCCCNOCCCN"
  Quantity name: "TGI"
  Endpoint value: "> 100 µM"
- Molecule: "O=C(O)c1c2c(cc3c1CC1(Cc4cc5c(cc4C1=O)CCC5)C3)CCC2 (configuration not stated)"
  Quantity name: "TGI"
  Endpoint value: "> 100 µM"
- Molecule: "O=[N+]([O-])/C=C(\\CS(=O)(=O)c1ccccc1)c1ccc2c(c1)OCO2"
  Quantity name: "TGI"
  Endpoint value: "> 100 µM"
- Molecule: "COC(=O)c1c(C)cccc1C1CN=NC12Cc1cc(C)cc(C)c1C2=O (configuration not stated)"
  Quantity name: "TGI"
  Endpoint value: "> 100 µM"
- Molecule: "CCOC(=O)CCN1C(=O)C(=O)N(c2ccc(OC)cc2)C1=S"
  Quantity name: "TGI"
  Endpoint value: "> 100 µM"

INPUT: Find the measured TGI of `CCCCCCCCCCCCCCCCCCNC(=S)/N=C/c1c(O)c2ccccc2[nH]c1=O` and report it.
OUTPUT: 35.3 µM

INPUT: Please report the measured TGI for Cc1c2oc3c(C)ccc(C(=O)NC4C(=O)NC(C(C)C)C(=O)N5CC(O)CC5C(=O)N(C)CC(=O)N(C)C(C(C)C)C(=O)OC4C)c3nc-2c(C(=O)NC2C(=O)NC(C(C)C)C(=O)N3CC(O)CC3C(=O)N(C)CC(=O)N(C)C(C(C)C)C(=O)OC2C)c(N)c1=O (configuration not stated) (I: TV[Hyp][Sar][NMeV] / II: TV[Hyp][Sar][NMeV]; ester I:1-I:C, II:1-II:C; linker I:N-II:N via Actinocin(9to1); configuration not given here)
OUTPUT: > 1 µM

* * *

Tested on: HCC-2998 colon
Procedure summary: NCI tumour cell line growth inhibition, 48 h
# Lookup of reported TGI keyed by entry

- Compound: "O=C1CSC(c2ccc([N+](=O)[O-])cc2)N1c1ccc(-c2ccc(-n3c(-c4ccccc4)nc4ccccc4c3=O)cc2)cc1 (stereo not given)"
  Measurement target: "HCC-2998 colon"
  Endpoint value: "> 100 µM"

INPUT: Output TGI of `CN(CCCNC(=O)c1nn(C)c2c1Cc1ccccc1-2)CCCNC(=O)c1nn(C)c2c1Cc1ccccc1-2`
OUTPUT: 23.5 µM

INPUT: Provide TGI value for the following compound: O=CN1N=C(c2cccc(Nc3ccnc4cc(Cl)ccc34)c2)CC1c1ccccc1 (stereo not given)
OUTPUT: 5.57 µM

INPUT: Kindly indicate its recorded TGI. Item: `CCCCc1c2cnccc2c(CCCC)c2c1[nH]c1ccccc12`
OUTPUT: > 100 µM

INPUT: Report measured TGI; entry is `CN(C)CCOc1ccc(-c2c(Oc3ccccc3)c(=O)oc3ccccc23)cc1`
OUTPUT: 20.8 µM

INPUT: Answer with reported TGI of `CCN(CC)CCn1c(=O)c2c(C)c3oc4ccccc4oc3c(C)c2c1=O`
OUTPUT: > 100 µM

INPUT: Indicate the recorded TGI value for this compound: `COc1c(Br)cc2ccccc2c1-c1c(OC)c(Br)cc2ccccc12`
OUTPUT: > 100 µM

INPUT: Give reported TGI value for `O=C1CNC(=O)c2[nH]cnc2N1`
OUTPUT: > 100 µM

INPUT: Hello, please tell me recorded TGI for this one: CCCCc1ccc(Nc2nc(Cl)c3c(ncn3C3CC(Oc4ccc(C)cc4)C(COc4ccc(C)cc4)O3)n2)cc1 (stereo not given)
OUTPUT: > 100 µM

INPUT: Provide only the value of recorded TGI for `C=CCOC(OCC=C)/C(Br)=C/C`
OUTPUT: > 100 µM

* * *

System: T-47D breast
Procedure summary: NCI tumour cell line growth inhibition, 48 h
Quantity name: TGI (µM)
Respond numerically; units are µM and should not be typed.

Here's what some known entries look like.
- Compound: "C=C1C(=O)O[C@H]2[C@H]1CC/C(COC(=O)CCCc1c[nH]c3ccccc13)=C\\CC[C@@]1(C)O[C@@H]21"
  TGI [µM]: 4.81
- Compound: "Cc1cc2c(c(S(=O)(=O)c3ccccc3[N+](=O)[O-])c1)NCCC2"
  TGI [µM]: 40.2
- Compound: "Cc1cc(Nc2ccc(NS(C)(=O)=O)cc2)c2c(ccc3nccc32)[nH]1"
  TGI [µM]: 19.5
- Compound: "COc1cc(Cc2cnc(N)nc2N)cc(OC)c1OCCCNc1ccc([N+](=O)[O-])cc1"
  TGI [µM]: 25.3
- Compound: "Cc1nc2c(cc1OCc1ccccc1)C(=O)C1=C(C2=O)C2OC(=O)CC2OC1(C)C (stereo not given)"
  TGI [µM]: 1.23
- Compound: "COC(=O)c1c2c(c(C)[n+]([O-])c1C)C(=O)C=C(NCc1cccc(Cl)c1)C2=O"
  TGI [µM]: 1.71
- Compound: "CCCCSC1=N/C(=C\\c2ccc(N(C)C)cc2)C(=O)N1"
  TGI [µM]: 81.8

Turning now to a further compound:
INPUT: Identify measured TGI corresponding to `O=C(CI)Nc1ccc(O)c2ccccc12`
OUTPUT: 4.27

* * *

System: NCI/ADR-RES ovarian
Procedure summary: NCI tumour cell line growth inhibition, 48 h
Quantity name: TGI

These solved cases illustrate the format of a correct answer.
- Molecule: "CCN(CC)CCn1c(=O)c2c(C)c3oc4ccccc4oc3c(C)c2c1=O"
  Measurement target: "NCI/ADR-RES ovarian"
  TGI: "> 100 µM"
- Molecule: "C#C[C@@]1(O)CCCC2=CC3(CC[C@]21C)SCCS3"
  Measurement target: "NCI/ADR-RES ovarian"
  TGI: "> 100 µM"
- Molecule: "C=C1C(=O)O[C@H]2[C@H]1CC/C(COC(=O)CCCc1c[nH]c3ccccc13)=C\\CC[C@@]1(C)O[C@@H]21"
  Measurement target: "NCI/ADR-RES ovarian"
  TGI: "10.9 µM"
- Molecule: "COc1ccc2c(c1)NC1(CCN(CCCC(=O)c3ccc(F)cc3)CC1)N=N2"
  Measurement target: "NCI/ADR-RES ovarian"
  TGI: "> 100 µM"
- Molecule: "CCOC(=O)/C=C(\\C(=O)OCC)n1cc(Cl)c(=O)n(CC(=O)OCC)c1=O"
  Measurement target: "NCI/ADR-RES ovarian"
  TGI: "> 93.8 µM"

INPUT: Specify measured TGI for C/C=C(\C)C(=O)O[C@@H]1CC(C)(C)CC2C3=CCC4[C@]56CC[C@](O)(OC5)C(C)(C)C6CC[C@@]4(C)C3(C)CC[C@]21C(=O)O (some centres undefined) .
OUTPUT: > 100 µM

INPUT: For the molecule `Cn1c2ccccc2c2cc(N3CCCC3)c3c(c21)C(=O)N(c1ccccc1)C3=O` , report TGI.
OUTPUT: > 100 µM

INPUT: Specify TGI for `COc1cc(C(=O)O[C@H](C(=O)NCCN(C)CCNC(=O)[C@@H](OC(=O)c2cc(OC)cc3c(C)cccc23)[C@]2(C)CO2)[C@]2(C)CO2)c2cccc(C)c2c1` and stop.
OUTPUT: 1.3 µM

INPUT: // fetch TGI given entry `Cc1[nH]c(N)nc(=S)c1CCC(=O)O`
OUTPUT: > 100 µM
